Examples of compounds with documented IC50 follow.
biological target: UniProt Q9NUW8; assay: Tdp1 inhibition gel-based assay; conditions: IC50 Tdp1 (μM), Table 6; replicate values listed in one cell
Sequence (Q9NUW8 whole entry): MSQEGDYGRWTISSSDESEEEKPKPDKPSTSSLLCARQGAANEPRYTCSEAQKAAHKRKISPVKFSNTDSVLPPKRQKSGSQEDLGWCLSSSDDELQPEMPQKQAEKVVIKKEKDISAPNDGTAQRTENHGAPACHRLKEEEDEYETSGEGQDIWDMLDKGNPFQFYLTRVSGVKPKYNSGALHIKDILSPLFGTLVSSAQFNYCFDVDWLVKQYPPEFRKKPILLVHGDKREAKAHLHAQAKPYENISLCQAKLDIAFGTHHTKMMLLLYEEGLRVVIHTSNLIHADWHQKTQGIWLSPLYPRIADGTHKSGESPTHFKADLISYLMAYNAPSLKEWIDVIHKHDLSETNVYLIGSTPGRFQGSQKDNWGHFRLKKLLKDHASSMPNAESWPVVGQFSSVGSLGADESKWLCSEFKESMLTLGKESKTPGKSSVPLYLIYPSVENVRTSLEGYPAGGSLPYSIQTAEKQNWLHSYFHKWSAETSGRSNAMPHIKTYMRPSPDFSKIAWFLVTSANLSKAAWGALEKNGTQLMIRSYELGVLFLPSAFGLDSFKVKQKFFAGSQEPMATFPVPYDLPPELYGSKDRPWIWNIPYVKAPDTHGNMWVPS
metric: IC50

compound: CCN(CC)CCSc1nc2c3cc4c(cc3ccc2c2cc(OC)c(OC)cc12)OCO4 [NTD-404]
metric: IC50
result: > 111 µM
//
compound: CN(C)CCn1c(=O)c2c3c(ccc2c2ccc4ccccc4c21)OCO3 [TWL-185]
metric: IC50
result: > 111 µM
//
compound: CCN1CCN(CCCOc2nc3c4cc5c(cc4ccc3c3cc(OC)c(OC)cc23)OCO5)CC1 [NTD-207]
metric: IC50
result: > 111 µM
//
compound: COc1cc2c[n+](CCN(C)C)c3c4cc5c(cc4ccc3c2cc1OC)OCO5 [NTD-191]
metric: IC50
result: 64.2 µM
//
compound: COc1cc2c(NCCCn3ccnc3)nc3c4cc5c(cc4ccc3c2cc1OC)OCO5 [NTD-314]
metric: IC50
result: > 111 µM
//
compound: COc1cc2c(OCCCOC(=O)c3ccc(Br)cc3)nc3c4cc5c(cc4ccc3c2cc1OC)OCO5 [NTD-209]
metric: IC50
result: > 111 µM
//
compound: COc1cc2c(SCCN(C)C)nc3c4cc5c(cc4ccc3c2cc1OC)OCO5 [NTD-403]
metric: IC50
result: > 111 µM
//
compound: COc1cc2ccc3c4cc5c(cc4c(=O)n(CCN(C)C)c3c2cc1OC)OCO5 [TWL-107]
metric: IC50
result: 67.6 µM
//
compound: COc1cc2c(OCCCOC(=O)c3ccccc3)nc3c4cc5c(cc4ccc3c2cc1OC)OCO5 [NTD-208]
metric: IC50
result: > 111 µM
//
compound: CN(C)CCn1c(=O)c2c3c(ccc2c2ccc4cc5c(cc4c21)OCO5)OCO3 [TWL-191]
metric: IC50
result: > 111 µM
//
compound: COc1ccc2ccc3c4ccccc4c(=O)n(CCN(C)C)c3c2c1 [TWL-33]
metric: IC50
result: > 111 µM
//
compound: COc1ccc2c(=O)n(CCN(C)C)c3c4ccccc4ccc3c2c1 [TWL-17]
metric: IC50
result: > 111 µM
//
compound: COc1ccc2c(ccc3c4ccccc4c(=O)n(CCN(C)C)c23)c1 [TWL-9]
metric: IC50
result: > 111 µM
//
compound: CN(C)CCn1c(=O)c2cc(O)c(O)cc2c2ccc3cc4c(cc3c21)OCO4 [TWL-170]
metric: IC50
result: > 111 µM
//
compound: CCN(CC)CC[n+]1cc2cc(OC)c(OC)cc2c2ccc3cc4c(cc3c21)OCO4 [NTD-195]
metric: IC50
result: > 111 µM
//
compound: CCOC(=O)COc1nc2c3cc4c(cc3ccc2c2cc(OC)c(OC)cc12)OCO4 [NTD-334]
metric: IC50
result: > 111 µM
//
compound: COc1ccc2c(c1)c(=O)n(CCN(C)C)c1c3ccccc3ccc21 [TWL-25]
metric: IC50
result: 49.4 µM
//
compound: COc1cc2c(NCCCN(C)C)nc3c4cc5c(cc4ccc3c2cc1OC)OCO5 [NTD-301]
metric: IC50
result: 38 µM
//
compound: COc1cc2ccc3c4cc(OC)c(OC)cc4c(=O)n(CCN(C)C)c3c2cc1O [TWL-131]
metric: IC50
result: > 111 µM
//
compound: COc1cc2c(N(C)C)nc3c4cc5c(cc4ccc3c2cc1OC)OCO5 [NTD-329]
metric: IC50
result: > 111 µM
//
compound: COc1cc2c(NCCN3CCNCC3)nc3c4cc5c(cc4ccc3c2cc1OC)OCO5 [NTD-311]
metric: IC50
result: > 111 µM
//
compound: COc1cccc2c1ccc1c3ccccc3c(=O)n(CCN(C)C)c21 [TWL-26]
metric: IC50
result: > 111 µM
//
compound: COc1cc2c(NCCN3CCCCC3)nc3c4cc5c(cc4ccc3c2cc1OC)OCO5 [NTD-313]
metric: IC50
result: > 111 µM
//
compound: CN(C)CCn1c(=O)c2cc3c(cc2c2ccc4cc5c(cc4c21)OCO5)OCO3 [TWL-37]
metric: IC50
result: 27.6 µM
//
compound: COc1cc2ccc3c4cc(OC)c(OC)cc4c(=O)n(CCN(C)C)c3c2cc1OC [TWL-48]
metric: IC50
result: > 111 µM
//
compound: CCN(CC)CCNc1nc2c3cc4c(cc3ccc2c2cc(OC)c(OC)cc12)OCO4 [NTD-305]
metric: IC50
result: > 111 µM
//
compound: CN(C)CCn1c(=O)c2ccccc2c2ccc3cc(Br)ccc3c21 [TWL-53]
metric: IC50
result: > 111 µM
//
compound: COc1cc2c(NCCN3CCOCC3)nc3c4cc5c(cc4ccc3c2cc1OC)OCO5 [NTD-309]
metric: IC50
result: > 111 µM
//
compound: COc1cc2c(NCCN3CCCC3)nc3c4cc5c(cc4ccc3c2cc1OC)OCO5 [NTD-307]
metric: IC50
result: 56.2 µM
//
compound: C=CCOc1nc2c3cc4c(cc3ccc2c2cc(OC)c(OC)cc12)OCO4 [NTD-332]
metric: IC50
result: > 111 µM
//
compound: COc1cc2ccc3c4ccccc4c(=O)n(CCN(C)C)c3c2cc1OC [TWL-76H]
metric: IC50
result: > 111 µM
//
compound: COc1cc2c(OCCCOC(=O)c3ccc(Cl)cc3)nc3c4cc5c(cc4ccc3c2cc1OC)OCO5 [NTD-210]
metric: IC50
result: > 111 µM
//
compound: COc1cc2c(OCCCN3CCN(C(C)=O)CC3)nc3c4cc5c(cc4ccc3c2cc1OC)OCO5 [NTD-205]
metric: IC50
result: > 111 µM
//
compound: COc1cc2c(=O)n(CCN(C)C)c3c4cc(O)c(O)cc4ccc3c2cc1OC [TWL-164]
metric: IC50
result: > 111 µM
//
compound: CN(C)CCn1c(=O)c2ccccc2c2ccc3cc4c(cc3c21)OCO4 [TWL-67]
metric: IC50
result: > 111 µM
//
compound: COc1cc2c[n+](CCCn3ccnc3)c3c4cc5c(cc4ccc3c2cc1OC)OCO5 [NTD-192]
metric: IC50
result: 81.3 µM

* * *

Examples of compounds with documented Top1 cleavage follow.
Target: Top1 (Homo sapiens, UniProt P11387)
Sequence (P11387 1-765): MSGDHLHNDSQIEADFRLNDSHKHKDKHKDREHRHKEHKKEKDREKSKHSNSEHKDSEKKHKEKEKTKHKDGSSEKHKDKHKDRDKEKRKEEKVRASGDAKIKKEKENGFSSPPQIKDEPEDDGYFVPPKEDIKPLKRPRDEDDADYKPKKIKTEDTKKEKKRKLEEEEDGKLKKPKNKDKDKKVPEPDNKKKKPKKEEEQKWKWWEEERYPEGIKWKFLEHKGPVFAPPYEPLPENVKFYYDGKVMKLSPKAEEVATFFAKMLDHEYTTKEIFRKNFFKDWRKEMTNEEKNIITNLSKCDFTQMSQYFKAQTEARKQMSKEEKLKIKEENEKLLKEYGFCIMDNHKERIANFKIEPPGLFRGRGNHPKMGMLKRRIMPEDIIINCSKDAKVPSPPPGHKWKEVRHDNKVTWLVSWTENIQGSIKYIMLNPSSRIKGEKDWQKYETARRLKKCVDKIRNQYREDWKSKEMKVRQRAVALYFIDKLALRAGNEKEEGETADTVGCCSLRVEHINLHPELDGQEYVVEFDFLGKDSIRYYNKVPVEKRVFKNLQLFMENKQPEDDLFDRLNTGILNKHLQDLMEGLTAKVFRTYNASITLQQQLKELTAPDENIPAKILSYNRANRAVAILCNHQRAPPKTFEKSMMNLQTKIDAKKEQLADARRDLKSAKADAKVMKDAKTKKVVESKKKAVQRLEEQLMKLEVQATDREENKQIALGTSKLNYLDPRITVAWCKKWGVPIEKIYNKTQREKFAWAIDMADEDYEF
Experiment: Top1-mediated DNA cleavage assay
Assay type: biochemical
Details: inhibition relative to 1 μM CPT, Table 6

compound: COc1cc2c(NCCN)nc3c4cc5c(cc4ccc3c2cc1OC)OCO5 [NTD-325]
target-of-assay: Top1 (Homo sapiens, UniProt P11387)
Top1 cleavage: 0 (0 is inactive)
--
compound: COc1cc2c(NCCCN(C)C)nc3c4cc5c(cc4ccc3c2cc1OC)OCO5 [NTD-301]
target-of-assay: Top1 (Homo sapiens, UniProt P11387)
Top1 cleavage: 0 (0 is inactive)

* * *

target: Top1 (Homo sapiens); assay: Top1-mediated DNA cleavage assay; format: biochemical; conditions: graded relative to CPT at 1 μM, Table 7

compound: CC[C@@]1(O)C(=O)OCc2c1cc1n(c2=O)Cc2cc3ccccc3nc2-1 [Compound 1, camptothecin, reference compound]
TOP1 inhibition: ++++
